Assay Comment: chemical genetic growth profiling, strain panel (AID 1159580);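 also: tested at 20 µM; growth read once vehicle control cultures reached saturation at 30 °C; 1 = growth at the plate median or of vehicle wells; lower values mean less growth of the strain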
Condition Parameters: S. cerevisiae deletion strains, growth OD, locus YML070W, strain DAK1
Screen size: about 5,500 compounds; about 2,000 (36%) were called active. About 18% were inconclusive and are not listed. Rule as the data show it: active = normalized growth mostly below about 0.91 (no sharp cut-off); inconclusive = no clear call, values can overlap the other calls; inactive = mostly above about 0.92. The list shows a part of the results.
Outcome codes: active, inactive

- Compound: "N#C/C(=N/Nc1ccccc1Cl)S(=O)(=O)c1ccc(Cl)cc1"
  Cat: "inactive"
- Compound: "N#C/C(=C\\c1ccccc1Sc1ccc(Cl)cc1)S(=O)(=O)c1ccccn1"
  Cat: "inactive"
- Compound: "O=C(Oc1cc(Cl)c(Cl)cc1Cl)C1c2ccccc2Oc2ccccc21"
  Cat: "inactive"
- Compound: "C=CC(=O)N1CCc2cc([N+](=O)[O-])ccc21"
  Cat: "active"
- Compound: "Cn1cncc1S(=O)(=O)/C(C#N)=C/c1ccccc1Sc1ccc(Cl)cc1"
  Cat: "inactive"
- Compound: "Cc1ccccc1C(=O)N1CCc2c([nH]c3ccccc23)C1C(F)(F)F (configuration not stated)"
  Cat: "inactive"
- Compound: "O=C(Nc1c(Br)c(C2CC2)nn1-c1ccccc1)C(Cl)(Cl)Cl"
  Cat: "inactive"
- Compound: "O=C(CCN1CCCCC1)c1ccc(-c2ccccc2)cc1"
  Cat: "inactive"
- Compound: "COc1ccc(NC(=O)O/N=C(/N)c2ccc(Oc3c(Cl)cncc3Cl)cc2)cc1"
  Cat: "inactive"
- Compound: "CC(C)(C)C1=NN(c2nc3ccc(Cl)cc3s2)C(=O)C1"
  Cat: "active"
- Compound: "Cc1c(C(=O)N2CCCCC2)cc(-c2ccccc2)n1-c1ccccc1"
  Cat: "inactive"
- Compound: "NCCCN=c1ccc2c3c1c(O)c1c(O)ccc(=O)c1c3[nH]n2CCNCCO"
  Cat: "inactive"

====

Assay Comment: chemical genetic growth profiling, strain panel (AID 1159580)
Condition Parameters: S. cerevisiae deletion strains, growth OD, locus YDL134C, strain PPH21, hits give low values
In all, about 5,500 compounds went through this assay and about 2,000 (36%) were called active. About 18% were inconclusive and are not listed. The list shows a part of the results.
Parameter normalized growth: see the listing below.

- Compound: "COC(=O)[C@H]1[C@H]2C[C@H]3c4[nH]c5ccccc5c4CCN3C[C@H]2CC[C@@H]1O"
  normalized growth: 1.01
- Compound: "CNC(=S)NN=C(N)c1ccccn1"
  normalized growth: 0.963
- Compound: "O=C(O)CSCC(=O)N1CCc2c([nH]c3ccccc23)C1C(F)(F)F (stereo not given)"
  normalized growth: 1
- Compound: "COC(=O)[C@@H]1C(O)CC[C@H]2CN3CCc4c([nH]c5ccccc45)[C@@H]3C[C@@H]21 (stereo not given in full)"
  normalized growth: 0.996
- Compound: "COC(=O)C1[C@H]2C[C@H]3c4[nH]c5ccccc5c4CCN3C[C@@H]2CC[C@@H]1O (stereo not given in full)"
  normalized growth: 1.02

====

Assay Comment: chemical genetic growth profiling, strain panel (AID 1159580)
Condition Parameters: S. cerevisiae deletion strains, growth OD, locus YMR205C, strain PFK2 (second series), hits give low values
Screen size: about 5,500 compounds; about 2,000 (36%) were called active. Another 18% or so got no clear call; they are omitted. Some of the results follow.
Parameter normalized growth: see the listing below.

- Molecule: "Cn1cncc1S(=O)(=O)/C(C#N)=C/c1ccccc1Sc1ccc(Cl)cc1"
  normalized growth: 0.829
- Molecule: "Cn1c([N+](=O)[O-])cnc1/C=C(\\C#N)C(=O)Nc1ccc(F)cc1"
  normalized growth: 0.139
- Molecule: "O=C(C=C(O)c1ccc(Br)cc1)C(=O)Nc1ccccc1"
  normalized growth: 0.118
- Molecule: "O=C(Nc1c(Br)c(C2CC2)nn1-c1ccccc1)C(Cl)(Cl)Cl"
  normalized growth: 0.883
- Molecule: "NC(N)=Nc1nc(-c2cc(Cl)sc2Cl)cs1"
  normalized growth: 0.948
- Molecule: "CC(C)(C)C1=NN(c2nc3ccc(Cl)cc3s2)C(=O)C1"
  normalized growth: 0.0849
- Molecule: "CCC(C)c1ccccc1NC(=O)c1cc2cccc([N+](=O)[O-])c2[nH]1 (centres undefined)"
  normalized growth: 0.894
- Molecule: "N#Cc1c(Cl)c(Cl)c(Cl)c(Cl)c1C#N"
  normalized growth: 0.159
- Molecule: "Cc1c(Cl)cccc1NC(=S)N1CCCN(c2nc3ccc(Cl)cc3s2)CC1"
  normalized growth: 0.971

====

Assay Comment: chemical genetic growth profiling, strain panel (AID 1159580);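 also: tested at 20 µM; growth read once vehicle control cultures reached saturation at 30 °C; 1 = growth at the plate median or of vehicle wells; lower values mean less growth of the strain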
Condition Parameters: S. cerevisiae deletion strains, growth OD, locus YOR265W, strain rbl2, hits give low values
Out of some 5,500 compounds screened, about 2,000 (36%) were called active. Roughly 18% stayed inconclusive and do not appear here. The list shows a part of the results.
Parameter normalized growth: see the listing below.

- Compound: "O=[N+]([O-])O[C@H]1CO[C@H]2[C@@H]1OC[C@H]2O[N+](=O)[O-]"
  normalized growth: 0.994
- Compound: "CO[C@H]1C[C@H](O[C@H]2[C@H](C)[C@@H](OC3O[C@H](C)C[C@H](N(C)C)[C@H]3O)[C@@H](C)C[C@]3(CO3)C(=O)[C@H](C)[C@@H](O)[C@@H](C)[C@@H](C)OC(=O)[C@@H]2C)O[C@@H](C)[C@@H]1O (some centres not stated)"
  normalized growth: 1
- Compound: "CC(C(=O)O)c1ccc2c(c1)[nH]c1ccc(Cl)cc12 (configuration not stated)"
  normalized growth: 0.993
- Compound: "COc1c2c(c(CC=C(C)C)c3oc(=O)c(-c4ccc(O)cc4)c(O)c13)OC(C)(C)C=C2"
  normalized growth: 0.919
- Compound: "Cc1cc(OC(=O)N2CCCCC2)c(C(C)C)cc1[N+](C)(C)C"
  normalized growth: 0.98
- Compound: "NC(=O)N1c2ccccc2CC(=O)c2ccccc21"
  normalized growth: 0.996
- Compound: "CCC(C(=O)O)c1ccccc1 (configuration not stated)"
  normalized growth: 1
- Compound: "CC1(C)C2CC[C@]3(C)C(C(=O)C=C4[C@@H]5C[C@@](C)(C(=O)O)CC[C@]5(C)CC[C@]43C)[C@@]2(C)CC[C@@H]1O (some centres not stated)"
  normalized growth: 1
- Compound: "O=C(Cc1ccccc1)NO"
  normalized growth: 0.976
- Compound: "CCc1ccc(CCOc2ccc(CC3SC(=O)NC3=O)cc2)nc1 (configuration not stated)"
  normalized growth: 1.01
- Compound: "CC1(C)C2CC[C@]3(C)C(C(=O)C=C4[C@@H]5C[C@@](C)(C(=O)O)CC[C@]5(C)CC[C@]43C)[C@@]2(C)CC[C@@H]1OC(=O)CCC(=O)O (some centres not stated)"
  normalized growth: 0.974
- Compound: "O=C(O)C1CC([C@@H]2CCCCN2)CN2CCCCC12 (some centres not stated)"
  normalized growth: 0.946

====

Assay Comment: chemical genetic growth profiling, strain panel (AID 1159580);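 also: tested at 20 µM; growth read once vehicle control cultures reached saturation at 30 °C; 1 = growth at the plate median or of vehicle wells; lower values mean less growth of the strain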
Condition Parameters: S. cerevisiae deletion strains, growth OD, locus YAL021C, strain ccr4, hits give low values
The whole screen tested about 5,500 compounds, of which about 2,000 (36%) were called active. Inconclusive results (about 18%) are left out. The list shows a part of the results.

- Compound: "COC(=O)COc1cc(Cl)c(Cl)cc1Cl"
  normalized growth: 0.993
- Compound: "COc1ccc2c(c1)[C@@]1(C)CCC(=O)C[C@H]1CC2"
  normalized growth: 0.989
- Compound: "O=C(O)COc1cc(Cl)c(Cl)cc1Cl"
  normalized growth: 0.984
- Compound: "Cc1ccc2c(c1)CC[C@H]1CC(=O)CC[C@]21C"
  normalized growth: 0.991
- Compound: "C[N+](C)(C)CC(=O)[O-]"
  normalized growth: 0.993
- Compound: "COc1ccc2c(c1)C1(C)CCC(=O)CC1CC2 (configuration not stated)"
  normalized growth: 1.01
- Compound: "COc1cccc2c1CCC1CC(=O)CCC21C (configuration not stated)"
  normalized growth: 0.99

====

Assay Comment: chemical genetic growth profiling, strain panel (AID 1159580);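 also: tested at 20 µM; growth read once vehicle control cultures reached saturation at 30 °C; 1 = growth at the plate median or of vehicle wells; lower values mean less growth of the strain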
Condition Parameters: S. cerevisiae deletion strains, growth OD, locus YNL067W, strain RPL9B, hits give low values
About 2,000 (36%) of roughly 5,500 compounds were called active. Inconclusive results (about 18%) are left out. The list shows a part of the results.
Response field label: string, one of label 1 (normalized growth strictly below 1) or label 0.

- Molecule: "Cc1cc(C(C)(C)CC(C)(C)C)ccc1OCCOCC[N+](C)(C)Cc1ccccc1"
  Cat: "label 1"
- Molecule: "CCC(C(=O)O)c1ccccc1 (stereo not drawn)"
  Cat: "label 0"
- Molecule: "COc1ccc(-c2coc3c(O)c(OC)ccc3c2=O)cc1"
  Cat: "label 1"
- Molecule: "COC(=O)C1[C@H]2C[C@H]3c4[nH]c5ccccc5c4CCN3C[C@@H]2CC[C@@H]1O (stereo partly drawn)"
  Cat: "label 0"
- Molecule: "COc1ccc(-c2coc3c(OC)c(OC)cc(OC)c3c2=O)cc1"
  Cat: "label 1"
- Molecule: "COc1ccc(-c2coc3c(OC)c(OC)cc(O)c3c2=O)cc1"
  Cat: "label 1"
